- Test system: HCI13 (cells of an ER-positive luminal breast cancer xenograft)
- ASSAY_DETAILS: cell viability (% of vehicle); higher = less cytotoxic
- EXPERIMENTAL_SETUP: 10 µM; 72 h
Measured cell viability, listed per entry.

{"columns": ["COMPOUND", "cell viability"],
 "data": [
  ["CNC(=C[N+](=O)[O-])NCCSCc1csc(CN(C)C)n1 [Nizatidine]", 96.2],
  ["N#CC1CCCN1C(=O)CNC12CC3CC(CC(O)(C3)C1)C2 (stereo not drawn) [Vildagliptin (LAF-237)]", 96.1],
  ["COc1cc(Nc2ncc(F)c(Nc3ccc4c(n3)N(COP(=O)(O)O)C(=O)C(C)(C)O4)n2)cc(OC)c1OC [Fostamatinib (R788)]", 74.5],
  ["O=c1oc2cc(O)ccc2s1 [Tioxolone]", 85.9],
  ["Cc1nc2n(c(=O)c1CCN1CCC(c3noc4cc(F)ccc34)CC1)CCCC2 [Risperidone]", 118]
]}

With HCI13 as the test system, CN1CC(=O)N2[C@H](c3ccc4c(c3)OCO4)c3[nH]c4ccccc4c3C[C@@H]2C1=O [Tadalafil] showed cell viability of 95.7

// returns cell viability for CCOC(=O)C(CCc1ccccc1)NC(C)C(=O)N1Cc2ccccc2CC1C(=O)O.Cl (stereo not drawn) [Quinapril HCl] with HCI13; value = 104

Entry NS(=O)(=O)Cc1noc2ccccc12 [Zonisamide] , tested on HCI13, has a reported cell viability of 117

----------
- Test system: HCI01 (cells of a triple-negative basal-like breast cancer xenograft)
- ASSAY_DETAILS: cell viability of combination (% of vehicle); higher = less cytotoxic
- EXPERIMENTAL_SETUP: 1 µM; 72 h; partner dose: 10 nM
READOUT_TYPE: cell viability of combination
The answer should be written as a number, with no unit following it.

{"columns": ["MOLECULE", "STUDY_SYSTEM", "cell viability of combination"],
 "data": [
  ["CCCSc1nc(NC2CC2c2ccc(F)c(F)c2)c2nnn(C3CC(OCCO)C(O)C3O)c2n1 (configuration not stated) [Ticagrelor] + CC(C)C[C@H](NC(=O)[C@H](CCc1ccccc1)NC(=O)CN1CCOCC1)C(=O)N[C@@H](Cc1ccccc1)C(=O)N[C@@H](CC(C)C)C(=O)[C@@]1(C)CO1", "HCI01", 95.1]
]}

Okay, now this molecule:
response.value for CO[C@@]12[C@H](COC(N)=O)C3=C(C(=O)C(C)=C(N)C3=O)N1C[C@@H]1N[C@@H]12 [Mitomycin C] + CC(C)C[C@H](NC(=O)[C@H](CCc1ccccc1)NC(=O)CN1CCOCC1)C(=O)N[C@@H](Cc1ccccc1)C(=O)N[C@@H](CC(C)C)C(=O)[C@@]1(C)CO1 (field: cell viability of combination) = 51.1

----------
- Test system: HCI16 (cells of a triple-negative basal-like breast cancer xenograft)
- ASSAY_DETAILS: cell viability (% of vehicle); higher = less cytotoxic
- EXPERIMENTAL_SETUP: 10 µM; 72 h
Parameter cell viability: see the listing below.
// response body must contain only the number

Recorded results for 3 compounds are shown here.
{"columns": ["COMPOUND", "cell viability"],
 "data": [
  ["COc1c(N2CCNC(C)C2)c(F)cc2c(=O)c(C(=O)O)cn(C3CC3)c12 (centres undefined)", 92.2],
  ["Oc1c(Br)cc(Br)c2cccnc12", 122],
  ["Cc1nc(Nc2ncc(C(=O)Nc3c(C)cccc3Cl)s2)cc(N2CCN(CCO)CC2)n1", 40.5]
]}

The compound listed as `CO[C@H]1O[C@@H]2OC3(C)CC[C@H]4[C@H](C)CC[C@@H]([C@H]1C)[C@@]24OO3` has a reported cell viability of 106

Entry O=N[O-].[Na+] [Sodium Nitrite] — recorded cell viability = 108

// cell viability lookup, compound = CC12CCC3c4ccc(O)cc4CCC3C1CCC2O (centres undefined) , result: 91.4

Memo: CC(C)(Oc1ccc(CCNC(=O)c2ccc(Cl)cc2)cc1)C(=O)O [Bezafibrate] , reported cell viability: 123

// sample COc1cc(Nc2ncc(F)c(Nc3ccc4c(n3)N(COP(=O)(O)O)C(=O)C(C)(C)O4)n2)cc(OC)c1OC [Fostamatinib (R788)] , its cell viability was 65

Lookup result for `O=C(Oc1ccccc1C(=O)O)c1ccccc1O` ; measured cell viability: 122

Record summary for CC(C)(C)NCC(O)c1cc(O)cc(O)c1.CC(C)(C)NCC(O)c1cc(O)cc(O)c1.O=S(=O)(O)O (centres undefined) [Terbutaline Sulfate] : reported cell viability = 127

Documented cell viability of `CCCCCOc1ccc(-c2ccc(-c3ccc(C(=O)N[C@H]4C[C@@H](O)[C@@H](O)NC(=O)[C@@H]5[C@@H](O)[C@@H](C)CN5C(=O)[C@H]([C@@H](C)O)NC(=O)[C@H]([C@H](O)[C@@H](O)c5ccc(O)cc5)NC(=O)[C@@H]5C[C@@H](O)CN5C(=O)[C@H]([C@@H](C)O)NC4=O)cc3)cc2)cc1` : 55.2

Entry C=CCNC1=C2CC(C)CC(OC)C(O)C(C)C=C(C)C(OC(N)=O)C(OC)C=CC=C(C)C(=O)NC(=CC1=O)C2=O (centres undefined) , cell viability reported as 106

Entry COc1cc2ncnc(Nc3ccc(F)c(Cl)c3)c2cc1OCCCN1CCOCC1 [Gefitinib (ZD1839)] , cell viability reported as 94.8

The reported cell viability of the compound CC(=O)SC1CC2=CC(=O)CCC2(C)C2CCC3(C)C(CCC34CCC(=O)O4)C12 (centres undefined) was 64.2
